Parameter: growth. Scope: all listed entries.
System: KM12 colon
Assay: NCI-60 one-dose screen, 48 h (100 = growth as untreated, 0 = no growth, -100 = all killed)
Settings: 10 µM unless noted
Compounds without any hit were thinned out: in the full panel of roughly 83,000, 20% have a hit. Activity calls are given as the source filed them. Rule for the calls: active = growth percent below 10; inactive = the rest.

| compound | growth |
| --- | --- |
| CC(CN1CCCCC1)C(=O)c1ccccc1 (centres undefined) | 105% (inactive) |
| CC(=O)N1N=C(c2ccc(Nc3nc(Nc4ccc(F)cc4)nc(Nc4ccc(F)cc4)n3)cc2)CC1c1cccc([N+](=O)[O-])c1 (centres undefined) | 104% (inactive) |

Tell me its growth given "O=C1c2cccc(NCCN=Cc3cc([N+](=O)[O-])ccc3O)c2C(=O)c2c(NCCN=Cc3cc([N+](=O)[O-])ccc3O)cccc21" as the entry.
46.8% (inactive)

Give the value of growth reported for the following: "O=C(NCCCNc1cc(-c2cn(-c3ccccc3)nc2-c2cccc(O)c2)ccn1)c1ccccc1"
20.2% (inactive)

Identify measured growth associated with "Cc1ccc2nc(NC(=O)CSc3nc(Nc4ccc([N+](=O)[O-])cc4)c(C#N)c(-c4ccccc4)n3)sc2c1"
101% (inactive)

====

Entries annotated with measured growth
Test system: UACC-62 melanoma
Assay: NCI-60 one-dose screen, 48 h (100 = growth as untreated, 0 = no growth, -100 = all killed)
Conditions: 10 µM unless noted
Compounds without any hit were thinned out: in the full panel of roughly 83,000, 20% have a hit.
Could you give me the number in %? Just the number is fine.

Study these solved cases before continuing.
| molecule | display-unit | growth |
| --- | --- | --- |
| COc1cc2ncn3c(=O)c4c5c(sc4nc3c2cc1OC)CCCC5 | % | 93.4 |
| CC1CC2Oc3ccc(Cl)cc3C(=O)N2O1 (stereo unspecified) | % | 108 |

Given "C(=N\Nc1ncc(-c2cc3cc4c(cc3o2)OCO4)s1)/c1ccco1" , report its growth on UACC-62 melanoma.
88.8

Identify measured growth obtained with UACC-62 melanoma for "CCn1c(C)nc2cc(C(N)=O)ccc21" .
89.2

Provide growth, tested on UACC-62 melanoma, for "Cn1c(-c2c(N)n(Cc3cccnc3)c3nc(C#N)c(C#N)nc23)nc2ccccc21" .
89.8

Retrieve growth on UACC-62 melanoma; query "COc1ccc(-c2nc(SCCC(C)C)nc(N/N=C\c3cccc(Cl)c3)c2C#N)cc1"
89.6

====

# maps each entry to its growth
System: OVCAR-8 ovarian
Experiment: NCI-60 one-dose screen, 48 h (100 = growth as untreated, 0 = no growth, -100 = all killed)
Settings: 10 µM unless noted
Compounds without any hit were thinned out: in the full panel of roughly 83,000, 20% have a hit.
Report only the number, with the unit % understood.

Observe how each entry below is paired with its result.
| compound | assay-endpoint | display-unit | experimental-value |
| --- | --- | --- | --- |
| CCCCCCCCCCCC(c1ccccc1)[N+](C)(C)C (stereo unspecified) | growth | % | 19.3 |
| Cn1c(=O)c2c(nc(Cl)n2CCl)n(C)c1=O | growth | % | 83 |
| O=Cc1c[nH]c2ccc(-c3csc4ccccc34)cc12 | growth | % | 27.6 |

Tell me its growth given "Cc1cc(C)c2c(-c3nnc(N)s3)cc(=O)oc2c1" as the entry.
102

Indicate the recorded growth value for this compound: "COc1cc(C(=O)/C=C/c2c(C(F)(F)F)nc3sccn23)cc(OC)c1OC"
12.2

Input "CNS(=O)(=O)c1n[nH]nc1-c1cc(C(C)(C)C)c(O)c(C(C)(C)C)c1" , output reported growth.
100

// Input: "CC/C=C1/C(=O)C=C[C@@H]1C/C=C\CCCC(=O)O" . Output its growth only.
66.5

Give the value of growth reported for the following: CC(=O)n1c(-c2ccc(Cl)cc2)nc2c(c1=O)C(c1ccc(Cl)cc1)c1sc3c(Cl)cccc3c1O2 (stereo unspecified)
-31.5

// fetch growth given entry "Cc1ccc(CCC(=O)Nc2ncc(Cc3cc(Cl)ccc3Cl)s2)o1"
11.8

Indicate the recorded growth value for this compound: CC(=O)C(C)Cc1cc2c(cc1C)C(C)(C)CCC2(C)C (stereo unspecified)
101

Check the records and state growth for "Cc1cc(NCc2cc(Nc3ccnc4cc(Cl)ccc34)ccc2F)nc(N2CCN(c3ccccc3)CC2)n1"
58.8

====

Tested on: M14 melanoma
Assay: NCI-60 one-dose screen, 48 h
Settings: 10 µM unless noted
About 83,000 compounds went through this panel and 20% of them were active in at least one assay; those are over-represented in the sample as a whole. Activity calls are given as the source filed them. How the source made its calls: active means growth percent below 10; inactive means the rest.
Write down the outcome that applies. Available outcomes: 1 (active), 0 (inactive)

Answered examples (3):
| compound | class |
| --- | --- |
| NC(=O)c1ccc[n+](Cc2ccc(Cl)cc2Cl)c1 | 0 |
| CSc1n(Cc2ccc3ccccc3c2)c(C)c[n+]1Cc1ccc2ccccc2c1 | 1 |
| CCOC(CN=Cc1cc(C)c2[nH]c3ccccc3c2c1C)OCC | 0 |

# fetch the recorded call for "Cc1ccc(-c2cc(-c3ccccc3C)[nH]c(=O)c2C#N)s1" here
0

Which outcome was entered for the compound "Cc1cc(C(=O)c2ccccc2)c(C)c2c1[nH]c1ccc(Cl)cc12" in this test?
0

Each compound tested received a call. Report the one for COc1cc(C2CC(=O)Nc3c2c(C)nn3-c2nc3ccccc3[nH]2)cc2c1OCC(=O)N2 (stereo unspecified) .
0

Look up the recorded call for "CC(C)=C[C@@H]1c2c(c3ccccc3n(C)c2=O)O[C@H]2c3c(c4ccccc4n(C)c3=O)OC(C)(C)[C@@H]12" in this test.
0

Lab log entry: "Cc1cc(NCCCCNc2ccnc3cc(Cl)ccc23)nc(Nc2ccc(C(=O)N3CCCC3)cc2)n1" — outcome as called in the assay?
1

Assay outcome for "Cc1ccc(C(=NN=C(N)N)c2ccc(C)cc2)cc1" : what was it?
1

Call for entry "N#Cc1nc(C#N)c(Sc2ccccc2)c(Sc2ccccc2)c1Sc1ccccc1" :
1

====

System: IGROV1 ovarian
Assay: NCI-60 one-dose screen, 48 h (100 = growth as untreated, 0 = no growth, -100 = all killed)
Settings: 10 µM unless noted
This is part of a sample that, as a whole, favours compounds with a hit. Of some 83,000 tested, about 20% had one in any assay. Calls of active or inactive are those of the source. The calls were made as follows: active = growth percent below 10; inactive = the rest.
assay-endpoint: growth

Some solved cases for reference:
| molecule | growth |
| --- | --- |
| C[n+]1cc2c3c(ccc2c2ccc4cc5c(cc4c21)OCO5)OCO3 | -83.2% (active) |
| CCN(CC)c1nc(SCC(=O)Nc2nc3ccc(C)cc3s2)nc(-c2ccccc2)c1C#N | 65.7% (inactive) |
| CN(Cc1cnc2nc(N)nc(N)c2n1)c1ccc(C(=O)N[C@@H](CCc2nn[nH]n2)c2nn[nH]n2)cc1 | 45.6% (inactive) |
| Cc1ccc(C(=O)C2=C(O)C(=O)N(Cc3cccnc3)C2c2ccccc2F)o1 (centres undefined) | 68.2% (inactive) |
| O=C1CCC2=C3C4CCCCC4C(=O)C4CCCC(OC2C1)C34 (centres undefined) | -2.77% (active) |
| Cn1ccc2c(c1=O)C(=O)c1nccc3c1c-2nc1ccccc13 | 44.6% (inactive) |
| Cc1cc(NCc2cc(Nc3ccnc4cc(Cl)ccc34)ccc2F)nc(Cl)n1 | 57% (inactive) |
| CC1(C)CC[C@]2(C(=O)N3CCOCC3)CC[C@]3(C)C(=CC[C@@H]4[C@@]5(C)CC[C@H](OC(=O)c6cccnc6)C(C)(C)[C@@H]5CC[C@]43C)[C@@H]2C1 | 69.7% (inactive) |

In the following, a different molecule is considered.
Please report the measured growth for "C=CCNc1nc(NN2C(=O)c3cccc4cccc(c34)C2=O)nc(-n2cnc3ccccc32)n1"
46.7% (inactive)

====

Tested on: NCI-H322M lung
Assay: NCI-60 one-dose screen, 48 h (100 = growth as untreated, 0 = no growth, -100 = all killed)
Settings: 10 µM unless noted
Compounds without any hit were thinned out: in the full panel of roughly 83,000, 20% have a hit. Activity calls are given as the source filed them. The calls were made as follows: active = growth percent below 10; inactive = the rest.
assay-endpoint: growth

Use these answered entries as a reference point.
| compound | target-under-test | growth |
| --- | --- | --- |
| CCOC(CN=Cc1cc(C)c2[nH]c3ccccc3c2c1C)OCC | NCI-H322M lung | 113% (inactive) |
| C=CC(=O)Nc1cccc(Oc2nccc(Nc3nnc(C4CC4)s3)n2)c1 | NCI-H322M lung | 105% (inactive) |
| CCN(CC)Cc1cccc(C(=O)OC)c1 | NCI-H322M lung | 106% (inactive) |
| Cc1ccc2[nH]c(=O)c3c(c2c1)OC(N)=C(C#N)C31c2cc(Br)ccc2-c2ccc(Br)cc21 | NCI-H322M lung | 75.3% (inactive) |

As a next step, examine the compound that follows.
Specify growth for "CNC(=O)c1cc(Oc2ccc3nc(Nc4ccc(Cl)c(C(F)(F)F)c4)ccc3c2)ccn1" and stop.
89.2% (inactive)
